MEASUREMENT_PARAMETERS: Crystal 1; DTA
# Normal melting temperature values compiled below
Answer in °C, number only, no unit symbol.

Please list Normal melting temperature recorded for the compound N#CCC#N [propanedinitrile]
31.89

Please supply the value of reported Normal melting temperature for the item N#CCCCCC#N [hexanedinitrile]
1.89

Assign Normal melting temperature to the following record: N#CCCC#N [butanedinitrile]
57.11

Tell me Normal melting temperature reported for N#CCCCCCCCCC#N [decanedinitrile]
8.03

Return reported Normal melting temperature. Input compound: N#CCCCCCC#N [heptanedinitrile]
-31.4

Identify the reported Normal melting temperature for the following entry. N#CCCCCCCCCCCCCC#N [tetradecanedinitrile]
36.40

Return Normal melting temperature (reported value) for this compound: N#CCCCCCCC#N [octanedinitrile]
-4.22

----------
ASSAY_NOTES: Molar enthalpy of transition or fusion
MEASUREMENT_PARAMETERS: Crystal; DSC
The compounds listed here are annotated with their Molar enthalpy of transition or fusion.
Kindly answer with a numeric value in kcal/mol, unit omitted.

>  <CHEMICAL_STRING>
N#CCCCCCCCCCC#N

>  <U>
kcal/mol

>  <Molar enthalpy of transition or fusion>
6.22

$$$$
>  <CHEMICAL_STRING>
N#CCCCC#N

>  <U>
kcal/mol

>  <Molar enthalpy of transition or fusion>
2.88

$$$$
>  <CHEMICAL_STRING>
N#CCCCCCCCC#N

>  <U>
kcal/mol

>  <Molar enthalpy of transition or fusion>
4.46

$$$$

Switching to the query record.
Supply recorded Molar enthalpy of transition or fusion for `N#CCCCCCCCCCCC#N` here.
8.21

----------
# key: entry, value: Triple point temperature
MEASUREMENT_PARAMETERS: Crystal 2; DTA
# value in K; strip the unit string

These recorded examples may help you get a feel for the data.
>  <CHEMICAL_STRING>
N#CCCCCC#N

>  <Triple point temperature / K>
270.25

$$$$
>  <CHEMICAL_STRING>
N#CCCCCCCCCCCCCC#N

>  <Triple point temperature / K>
261.05

$$$$
>  <CHEMICAL_STRING>
N#CCCCCCC#N

>  <Triple point temperature / K>
236.72

$$$$
>  <CHEMICAL_STRING>
N#CCCC#N

>  <Triple point temperature / K>
233.59

$$$$

Provide measured Triple point temperature value, entry: `N#CCCCCCCCCC#N`
278.02

Give the reported Triple point temperature for this molecule. `N#CCCCCCCC#N`
265.82

# return recorded Triple point temperature for input `N#CCC#N`
303.64

----------
ASSAY_NOTES: Molar enthalpy of transition or fusion
MEASUREMENT_PARAMETERS: Crystal 1; DSC
The entries below come with measured Molar enthalpy of transition or fusion values attached.
Note: unit kcal/mol is implicit; provide only the numeric part.

Here are 4 molecules together with their reported answers.
>  <MOLECULE>
N#CCCCCC#N [hexanedinitrile]

>  <QUANTITY_NAME>
Molar enthalpy of transition or fusion

>  <RECORDED_VALUE>
4.31

$$$$
>  <MOLECULE>
N#CCCCCCC#N [heptanedinitrile]

>  <QUANTITY_NAME>
Molar enthalpy of transition or fusion

>  <RECORDED_VALUE>
3.59

$$$$
>  <MOLECULE>
N#CCC#N [propanedinitrile]

>  <QUANTITY_NAME>
Molar enthalpy of transition or fusion

>  <RECORDED_VALUE>
2.56

$$$$
>  <MOLECULE>
N#CCCC#N [butanedinitrile]

>  <QUANTITY_NAME>
Molar enthalpy of transition or fusion

>  <RECORDED_VALUE>
0.896

$$$$

Moving on to the next molecule.
Name the recorded Molar enthalpy of transition or fusion of the item N#CCCCCCCCCCCCCC#N [tetradecanedinitrile] in your answer.
9.6
